Tested on: SK-MEL-2 melanoma
Experiment: NCI tumour cell line growth inhibition, 48 h
Below: a set of entries, each annotated with reported TGI.

>  <compound>
CC(=O)OCC(OC(C)=O)C1C[C@H]2O[C@@H]3[C@H](C[C@H]2O1)O[C@@]1(C[C@@H]3C)C[C@H](C)[C@@H]2O[C@]3(C[C@@H]2O1)C[C@H]1O[C@H]2[C@H](C)[C@H]4OC(=O)C[C@H]5CC[C@@H]6OC7[C@H]8O[C@]9(CC[C@H]%10CC(=O)[C@H](CC[C@H]%11C[C@@H](C)C(=O)C(C[C@@H]4O[C@H]2C[C@H]1O3)O%11)O%10)CC8O[C@@H]7[C@@H](O9)[C@H]6O5 (some centres undefined)

>  <TGI>
> 1 µM

$$$$
>  <compound>
COC(=O)c1ccccc1/C=C1\Cc2c(ccc3c2CCC3)C1=O

>  <TGI>
> 100 µM

$$$$
>  <compound>
COc1ccc2c(c1)C=C([N+](=O)[O-])C(C1OC(C)(C)OC1C1COC(C)(C)O1)O2 (centres undefined)

>  <TGI>
4.36 µM

$$$$
>  <compound>
O=C(O)CP(=S)(S)c1ccccc1 (centres undefined)

>  <TGI>
> 100 µM

$$$$
>  <compound>
Fc1cc(F)c(COc2cc(Cn3cnc4c(Cl)nc(Cl)nc43)ccc2C23CC4CC(CC(C4)C2)C3)cc1F

>  <TGI>
56.1 µM

$$$$
>  <compound>
CN(C)CCNC(=O)c1cccc(C(=O)Nc2ccccc2)c1[N+](=O)[O-]

>  <TGI>
> 100 µM

$$$$
>  <compound>
COC(=O)c1cccc2cccc(C(=O)Nc3ccc(C)cc3C)c12

>  <TGI>
> 100 µM

$$$$
>  <compound>
COc1ccc(C2C(C(=O)O)=C(CO)Oc3cc4c(cc32)OCO4)cc1 (centres undefined)

>  <TGI>
> 100 µM

$$$$
>  <compound>
O=S(=O)(O)CCSSCCS(=O)(=O)O

>  <TGI>
> 1000 µM

$$$$
>  <compound>
COC(=O)C1C2OC(C)(C)OC2CN1S(=O)(=O)c1ccc(C)cc1 (centres undefined)

>  <TGI>
> 100 µM

$$$$
>  <compound>
C=CCCCCCCCCC(=O)NS(=O)(=O)c1ccccc1

>  <TGI>
> 100 µM

$$$$
>  <compound>
O=C1CSC(c2ccccc2)N1c1nc2cc3sc(N4C(=O)CSC4c4ccccc4)nc3cc2s1 (centres undefined)

>  <TGI>
> 100 µM

$$$$
>  <compound>
N=C1C(=N)c2ccccc2-c2ccccc21.[Cl-].[Ru+2].c1cnc2c(c1)ccc1cccnc12.c1cnc2c(c1)ccc1cccnc12

>  <TGI>
91.4 µM

$$$$
>  <compound>
CC[C@]12C=CCN3CC[C@@]4(c5cc(Br)c(OC)c([N+](=O)[O-])c5N(C)[C@H]4[C@@](O)(C(=O)OC)[C@@H]1OC(C)=O)[C@@H]32

>  <TGI>
> 100 µM

$$$$
>  <compound>
CCN(CC)CCN1CC(O)=C(c2nc(-c3ccc(Cl)cc3)cs2)C1=N

>  <TGI>
> 100 µM

$$$$
>  <compound>
Nc1ncc(-c2cnn(CCO)c2)c2scc(-c3ccc(NC(=O)Nc4cccc(F)c4)cc3)c12

>  <TGI>
1.66 µM

$$$$
>  <compound>
Cc1ccc(S(=O)(=O)NC(=O)NCc2ccc(S(N)(=O)=O)cc2)cc1

>  <TGI>
> 100 µM

$$$$
>  <compound>
CC1=C2C(=O)O[C@@H](c3ccoc3)[C@]2(C)CCC1

>  <TGI>
> 100 µM

$$$$
>  <compound>
C=CCN1C(=O)/C(=C/c2ccc(Cl)cc2)N=C1SC/C=C/C

>  <TGI>
68.2 µM

$$$$
>  <compound>
COc1ccc(CNc2ccn(C3OC(CO)C(O)C3O)c(=O)n2)cc1 (centres undefined)

>  <TGI>
> 100 µM

$$$$
>  <compound>
O=C1c2ccccc2-c2c1c1ccccc1c(=O)n2Cc1ccccc1

>  <TGI>
> 100 µM

$$$$
>  <compound>
CC(C)OC(=O)c1ccc(NCC2=CC(=O)C=CC2=O)cc1

>  <TGI>
31.5 µM

$$$$
>  <compound>
Cc1ccc(C(=NN=C(N)N)c2ccc(C)cc2)cc1

>  <TGI>
2.94 µM

$$$$
>  <compound>
Cc1cc(C)c(C(=O)CC(=O)c2cccnc2)c(C)c1

>  <TGI>
> 100 µM

$$$$
>  <compound>
COc1c2c(cc3nc4ccccc4nc13)CCC(C(C)(C)O)C2 (centres undefined)

>  <TGI>
> 100 µM

$$$$
>  <compound>
COc1ccc(CC2Cc3ccccc3CCN2)cc1OC (centres undefined)

>  <TGI>
> 50 µM

$$$$
>  <compound>
COc1ccc(C(C)c2cc3c(cc2OC)OCO3)cc1 (centres undefined)

>  <TGI>
2.49 µM

$$$$
>  <compound>
CCOC(=O)/C(C#N)=C/Nc1c(C)n(C)n(-c2ccccc2)c1=O

>  <TGI>
> 100 µM

$$$$
>  <compound>
NCCCC[C@@H]1NC(=O)[C@H]2CCCN2C(=O)[C@H](Cc2ccccc2)NC(=O)[C@H](Cc2ccccc2)CNC1=O

>  <TGI>
> 100 µM

$$$$

Data provenance: PubChem BioAssay (NCI)
